# tested-system: GPR50 (Homo sapiens, UniProt Q13585)
# Construct: purchased Promega (in-house HiBiT-GPCR construct library, NanoBRET)
# Sequence (Q13585 whole entry): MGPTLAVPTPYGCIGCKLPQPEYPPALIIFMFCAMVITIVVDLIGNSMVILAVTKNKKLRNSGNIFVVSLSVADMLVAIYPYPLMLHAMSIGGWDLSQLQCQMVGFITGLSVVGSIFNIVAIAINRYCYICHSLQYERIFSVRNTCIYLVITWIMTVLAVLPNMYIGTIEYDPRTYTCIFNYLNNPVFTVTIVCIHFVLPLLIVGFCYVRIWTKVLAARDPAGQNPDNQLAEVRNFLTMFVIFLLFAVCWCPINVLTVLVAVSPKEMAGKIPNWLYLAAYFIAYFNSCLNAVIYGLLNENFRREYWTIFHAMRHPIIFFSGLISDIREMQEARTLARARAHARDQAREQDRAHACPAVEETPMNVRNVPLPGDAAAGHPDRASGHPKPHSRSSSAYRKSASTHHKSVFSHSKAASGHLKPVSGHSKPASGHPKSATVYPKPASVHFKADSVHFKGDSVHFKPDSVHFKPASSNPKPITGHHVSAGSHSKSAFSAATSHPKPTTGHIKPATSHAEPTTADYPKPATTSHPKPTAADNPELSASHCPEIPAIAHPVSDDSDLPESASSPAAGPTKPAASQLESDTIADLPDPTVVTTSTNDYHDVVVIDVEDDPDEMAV
# experimental-details: NanoBRET screen HiBiT-GPR50 in HEK293
# Format: binding
# test-parameters: GPR50; tracer 1μM
recorded-metric: NanoBRET Fold Response
Numbers only.

O=C(CCOCCOCCOCCOCCNC(=O)CCc1ccc2n1[B-](F)(F)[N+]1=C(c3ccc[nH]3)C=CC1=C2)NCCCN1CCN(C2=Nc3ccccc3Oc3ccc(Cl)cc32)CC1; 1.09
COc1ccccc1N1CCN(CCCCN2C(=O)c3ccc(CNC(=O)CCOCCNC(=O)c4ccc(CNC(=O)CCc5ccc6n5[B-](F)(F)[N+]5=C(c7ccc[nH]7)C=CC5=C6)cc4)cc3C2=O)CC1; 0.89
CC(C)N(CC[C@H](c1ccccc1)c1cc(CCNC(=O)c2ccc(CNC(=O)CCc3ccc4n3[B-](F)(F)[N+]3=C(c5ccc[nH]5)C=CC3=C4)cc2)ccc1O)C(C)C; 0.39
CN(C)CCC=C1c2ccccc2CCc2ccc(C(=O)NCCNC(=O)CCOCCOCCOCCOCCNC(=O)CCc3ccc4n3[B-](F)(F)[N+]3=C(c5ccc[nH]5)C=CC3=C4)cc21; 0.99

Please turn your attention to the following entry.
Param readout= NanoBRET Fold Response; system= GPR50 (Homo sapiens, UniProt Q13585); entry= O=C(CCc1ccc2n1[B-](F)(F)[N+]1=C(c3ccc[nH]3)C=CC1=C2)NCc1ccc(C(=O)NCCOCCC(=O)N[C@@H]2CC[C@@]3(O)[C@H]4Cc5ccc(O)c6c5[C@@]3(CCN4CC3CC3)[C@H]2O6)cc1 [Naltrexone-3-NB590] ; returns value.
0.97

---

# tested-system: CYSLTR2 (Homo sapiens, UniProt Q9NS75)
# Construct: purchased Promega (in-house HiBiT-GPCR construct library, NanoBRET)
# Sequence (Q9NS75 whole entry): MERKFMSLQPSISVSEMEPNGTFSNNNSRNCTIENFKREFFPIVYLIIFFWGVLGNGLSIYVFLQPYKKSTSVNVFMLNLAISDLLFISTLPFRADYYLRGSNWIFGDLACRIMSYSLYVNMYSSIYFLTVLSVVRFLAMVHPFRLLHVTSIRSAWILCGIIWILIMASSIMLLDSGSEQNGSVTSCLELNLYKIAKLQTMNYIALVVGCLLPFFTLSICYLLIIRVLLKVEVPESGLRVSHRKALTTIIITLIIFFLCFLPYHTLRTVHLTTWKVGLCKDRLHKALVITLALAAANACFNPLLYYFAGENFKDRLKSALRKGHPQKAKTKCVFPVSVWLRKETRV
# experimental-details: NanoBRET screen HiBiT-CYSLTR2 in HEK293
# Assay type: binding
# test-parameters: CYSLTR2; tracer 1μM
Use 1 as the dividing line for NanoBRET Fold Response, with the line itself on the t side and lower values as f.

As a guide, the following entries are already answered.
O=C(CCc1ccc2n1[B-](F)(F)[N+]1=C(c3ccc[nH]3)C=CC1=C2)NCCOCCOCCNC(=O)OCCOCCN1CCN(C2=Nc3ccccc3Sc3ccccc32)CC1; f
CC(C)N(CC[C@H](c1ccccc1)c1cc(CCNC(=O)c2ccc(CNC(=O)CCc3ccc4n3[B-](F)(F)[N+]3=C(c5ccc[nH]5)C=CC3=C4)cc2)ccc1O)C(C)C; t
Cc1nc2n(c(=O)c1CCN1CCC(c3noc4cc(F)ccc34)CC1)CCCC2OC(=O)NCCOCCOCCOCCOCCNC(=O)CCc1ccc2n1[B-](F)(F)[N+]1=C(c3ccc[nH]3)C=CC1=C2 (centres unmarked); t

API: above_or_equal(metric=NanoBRET Fold Response, cutoff=1) for item `CN(C)CCC=C1c2ccccc2CCc2ccc(C(=O)NCCNC(=O)CCOCCOCCOCCOCCNC(=O)CCc3ccc4n3[B-](F)(F)[N+]3=C(c5ccc[nH]5)C=CC3=C4)cc21`
t

Please give the result for `COc1ccccc1N1CCN(CCCCN2C(=O)c3ccc(CNC(=O)CCOCCNC(=O)c4ccc(CNC(=O)CCc5ccc6n5[B-](F)(F)[N+]5=C(c7ccc[nH]7)C=CC5=C6)cc4)cc3C2=O)CC1` too.
t

Each recorded value in this set is attributed to paper PMC8151276.
